target: CYP2B6 (Homo sapiens, UniProt P20813, K262R/Y226H); assay: NADPH-dependent 7-EFC O-deethylation enzyme inhibition assay; type: biochemical; conditions: NADPH-based IC50, CYP2B6; CYP:POR:cyt b5
Readout label: IC50 (µM)
All answers are understood in µM, so give the number only.

## Input Data request, read-out IC50, for Nc1ccc(Oc2ccccc2)cc1 [POA, 4-(phenoxy)aniline]
## Output 27

## Input Data request, read-out IC50, for Nc1ccc(Oc2cc(Cl)c(Cl)cc2Cl)cc1 [2′4′5′TCPOA, 4-(2′,4′,5′-trichlorophenoxy)aniline]
## Output 0.43

----------
Could you please report measured Kd for the items listed next?
target: CYP2B6 (Homo sapiens, UniProt P20813, K262R/Y226H); test: Spectral binding titration; details: KS, CYP2B6, with POR (1 μM CYP, 4 μM POR), HEPES buffer
Please format your answer as a value with the unit trailing.

## Input Data request, read-out Kd, for Nc1ccc(Oc2ccccc2)cc1 [POA, 4-(phenoxy)aniline]
## Output 2.8 µM

## Input Data request, read-out Kd, for Nc1ccc(Oc2cc(Cl)c(Cl)cc2Cl)cc1 [2′4′5′TCPOA, 4-(2′,4′,5′-trichlorophenoxy)aniline]
## Output 8.1 µM

meta.source: paper PMC5831081
